Test system: MS2 coat protein
Test: apparent KD of MS2 coat protein; designed switch direction (-1 OFF switch, 1 ON switch): -1; higher = weaker reporter binding
Details: Eterna round: R95; input ligand: none
Experimental Endpoint: apparent KD of MS2 coat protein (nM)
Give the number; nM is assumed, so skip it.

Some solved entries appear below for comparison.
>>> val("CAUUACUGCAAGCUUUGGGACAUGAGGAUCACCCAUGUUCGUCUUAUUGAUCUAGGUACGCUGACGUACCUAGAUCU [JL-sv1-2.27 Brourd mod] (puzzle: Sensor v3, turn-off variant 1)")
15.4
>>> val("CGUUACUACAAGCUUUGGGACAUGAGGAUCACCCAUGUUCGUCUUAUUGUAGUAGGUACGCUGACGUACCUACUACU [JL-sv1-2.10 Brourd mod] (puzzle: Sensor v3, turn-off variant 1)")
13.9
>>> val("ACAAGCUUUUUGUUCGUCUUAUACACUCCUAAUAAGAAAACAUGAGGAUCACCCAUGUAAGAAAUAAGAACUCAUGU [Sesor Array 1 - Jieux - Sensor v3, turn-off variant 2] (puzzle: Sensor v3, turn-off variant 2)")
213

For the sequence AGAAAUGCCCAUGGCCACAAGCUUUCUGCUUGUCUUACUACAUGAGGAUCACCCAUGUAACAUGGGCUCCUGAUAAU [Enzainge] (puzzle: Sensor v3, turn-off variant 2) , give its reported apparent KD of MS2 coat protein.
11.4

For the sequence AUAACAAGCUUUUUGCUCGUCGUAUAUGACGCUCGAGUCACAUGAGGAUCACCCAUGUCUUCCUGUUUGAUUGUUGA [JR_SV3TOV2_Sub056] (puzzle: Sensor v3, turn-off variant 2) , give its reported apparent KD of MS2 coat protein.
177
